Tested on: SNB-75 CNS
protocol text: NCI-60 one-dose screen, 48 h
test parameters: 10 µM unless noted
Protocol: Growth inhibition of the SNB-75 human tumor cell line is measured as a screen for anti-cancer activity. Cells are grown in 96 well plates and exposed to the test compound for 48 hours. Compounds are tested at a single concentration, which is 10^-5 M for most compounds. The reported endpoint is percent growth (GI% or GIPRCNT), where numbers from 0 - 100% represent growth inhibition, and numbers from -100% - 0 represent cell death. For example, a value of 40 represents 60% growth inhibition. […]
Compounds without any hit were thinned out: in the full panel of roughly 83,000, 20% have a hit. Active and inactive are the calls of the source. Rule for the calls: active = growth percent below 10; inactive = the rest.
Outcomes: active, inactive

| entry smiles | cat |
| --- | --- |
| CSc1nnc(C2=CC(=O)c3ccccc3C2=O)n1-c1ccccc1 | inactive |
| Cc1nnc(Nc2ccc(NC(=O)Nc3ccc(Cl)cc3)cc2)c2ccccc12 | inactive |
| CCCCn1c(Cc2ccc(Cl)cc2)nc2cc(OC)c(OC)cc2c1=O | inactive |
| CCN1C(=O)c2ccc3c4c(ccc(c24)C1=O)C(=O)N(CCCNCc1ccccc1OC)C3=O | active |
| CC(C)C/C(=N\NC(=O)c1ccncc1)c1cc(Cl)ccc1O | inactive |
